setup-conditions: 303.15 K; 101.3 kPa; Liquid
measure: mass density (kg/m3)

molecule	readout-units	mass density
CCCCCCCCCC [decane]	kg/m3	722.3
CCCCCCCC [octane]	kg/m3	694.5
CCC(C)O (centres undefined) [butan-2-ol]	kg/m3	798.5
CCCCCCCCCCCC [dodecane]	kg/m3	741.3

###

setup-conditions: 293.15 K; 101.3 kPa; Liquid
measure: speed of sound (m/s)

compound	measure	recorded-value
CCCCCCCCCCCC	speed of sound	1297
CCCCCCCCCC	speed of sound	1254
CCC(C)O (centres undefined)	speed of sound	1230
CCCCCCCC	speed of sound	1193

Data credit: the NIST ThermoML archive (doi:10.1016/j.jct.2003.12.005)
